ASSAYED_TARGET: T1, human natriuretic peptide receptor-A (human, UniProt P16066 33-1061)
T1 construct: whole, on cells; also called hNPR-A; human NPR-A
T1 sequence (looked up): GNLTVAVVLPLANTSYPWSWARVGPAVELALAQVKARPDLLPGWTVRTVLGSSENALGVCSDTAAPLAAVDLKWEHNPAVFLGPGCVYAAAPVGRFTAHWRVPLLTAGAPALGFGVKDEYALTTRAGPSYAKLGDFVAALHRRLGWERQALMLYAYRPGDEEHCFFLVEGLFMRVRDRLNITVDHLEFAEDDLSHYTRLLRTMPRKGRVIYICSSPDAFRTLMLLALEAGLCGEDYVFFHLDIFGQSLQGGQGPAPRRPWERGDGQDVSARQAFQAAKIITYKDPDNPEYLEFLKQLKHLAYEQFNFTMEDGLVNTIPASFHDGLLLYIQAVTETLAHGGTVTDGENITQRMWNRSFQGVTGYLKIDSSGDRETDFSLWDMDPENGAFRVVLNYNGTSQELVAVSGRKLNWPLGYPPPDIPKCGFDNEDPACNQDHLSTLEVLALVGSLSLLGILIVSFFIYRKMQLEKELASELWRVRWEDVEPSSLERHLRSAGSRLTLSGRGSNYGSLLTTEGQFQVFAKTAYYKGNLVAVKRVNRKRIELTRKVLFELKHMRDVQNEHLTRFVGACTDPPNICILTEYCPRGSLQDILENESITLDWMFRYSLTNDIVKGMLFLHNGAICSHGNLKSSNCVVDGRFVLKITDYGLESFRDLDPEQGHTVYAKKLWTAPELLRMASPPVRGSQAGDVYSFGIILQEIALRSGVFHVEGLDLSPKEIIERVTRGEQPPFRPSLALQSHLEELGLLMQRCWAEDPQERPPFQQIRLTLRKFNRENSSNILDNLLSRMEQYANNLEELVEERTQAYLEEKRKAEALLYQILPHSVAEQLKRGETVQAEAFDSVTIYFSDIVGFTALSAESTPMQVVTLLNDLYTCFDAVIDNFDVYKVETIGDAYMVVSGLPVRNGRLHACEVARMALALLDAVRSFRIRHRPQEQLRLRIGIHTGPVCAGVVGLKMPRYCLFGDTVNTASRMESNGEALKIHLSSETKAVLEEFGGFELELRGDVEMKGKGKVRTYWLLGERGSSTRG
METHOD: competition binding, Table I; tracer and receptor format not given
Bridges are numbered along the chain shown (N, C = ends). Primed or numbered codes have the meaning given here. Where no end group is shown, it is not given here. [ ]: non-standard residue; d: D form. Phg′ = phenylglycine, D or L; Mpa = O=C(O)CCS
For each entry below, report its IC50 value.
Answers are plain numbers, in nM.

Worked cases, IC50 given:
## Task I have this binder here, SLRRSSCF[dA]GDIDRIRAQSGLGCNSFRY (disulfide 7-23, Cys7-Cys23 disulfide; also called hANF(1-28) G9(d-Ala), R11D, M12I, G16R) [ANF 90] , and I need its recorded IC50.
## Result 1.2

## Task And for [Mpa]F[dA]GSIDRIRAQSGLGCNSFRY (disulfide 1-17; not fully specified; printed as Mpa-Phe-(D-Ala)-Gly-Ser-Ile-Asp-Arg-Ile-Arg-Ala-Gln-Ser-Gly-Leu-Gly-Cys-Asn-Ser-Phe-Arg-Tyr) [ANF 81] ?
## Result 1.4

## Task And for SLRRSSC[Phg′]TGSIDRIRAQSGLGCNSFRY (disulfide 7-23; also: Phg configuration D or L not given here) [ANF 100-1] ?
## Result 0.187

Then this binder:
## Task I have this binder here, SLRRSSCFERPMDRIGAQSGLGCNSFRY (disulfide 7-23, Cys7-Cys23 disulfide; also called hANF(1-28) G9E, G10R, R11P) [ANF 51] , and I need its recorded IC50.
## Result 4.55
